Test system: MS2 coat protein
Protocol notes: apparent KD of MS2 coat protein; designed switch direction (-1 OFF switch, 1 ON switch): -1; higher = weaker reporter binding
Assay conditions: input ligand: none
Reported apparent KD of MS2 coat protein is given for each of the following sequences.
Give a bare numeral; the unit nM is implied.

entry_sequence="ACAUGGGAGCGAGGAUAUAGCCCAUGUGAAGAACUAGAAGGCGCAGACAUGAGGAUCACCCAUGUGUUCAUGAGGAGGUGGACA (Eterna round: R96, puzzle: Exclusion NG 1)" measured_result=69.4
entry_sequence="UAUUGCAAGUGAGGAUAUGACAUGAGGAUCACCCAUGUAAAGGGAGUUGGCUAUAUAGCAAGAUAUCAGAAGGCACAACUGUAU [JR_ExcNG2_Sub005] (Eterna round: R96, puzzle: Exclusion NG 2)" measured_result=64.3
entry_sequence="AAGUUACAUGAGGAUCACCCAUGUGAGGAUAUGAGUCAGUCACGGUGACGUGGCUGACUCAGAAGGCACAUAGG [JL-ex1-4.42 salish99 mod] (Eterna round: R97, puzzle: Exclusion 1)" measured_result=77.1

Next, consider the following sequence.
What value of apparent KD of MS2 coat protein has been reported for the following sequence? UGGAUAAUUGGAGGAUAUGCGACAUAAACCAUUGUAGAAGGCCAACAUGAGGAUCACCCAUGUGUCCCAGAGACCACAGAUCCA [Eternabot solution 9] (Eterna round: R96, puzzle: Exclusion NG 1)
28.2

====

Tested on: MS2 coat protein
Protocol notes: apparent KD of MS2 coat protein; designed switch direction (-1 OFF switch, 1 ON switch): 1; higher = weaker reporter binding
Assay conditions: Eterna round: R95; input ligand: microRNA oligo, concentration not stated
Reported apparent KD of MS2 coat protein is given for each of the following sequences.
Give a bare numeral; the unit nM is implied.

entry_sequence="AAGAAGACGAACAAGGAUAUGUCAAAGGAAACAUGAGGAUCACCCAUGUAGAGAUUGGAAAAGAAACAGAAGGUGUACAGAGAGA [JR_SS2_Sub006] (puzzle: Same State 2)" measured_result=33.2
entry_sequence="AGUCCAGCCUGAGCUGGACAAAAGCAUGUACAUGAGGAUCACCCAUGUCAUGUACAAGCUUUUUGCUCGUCAUAAAA [Mat - hsa-mir-208a - Mod of JL - D8] (puzzle: Sensor for hsa-mir-208a)" measured_result=14.7
entry_sequence="AAAAUACAUGAGGAUCACCCAUGUCUAAAGAACGGAGGAUAUAGGCGUACAAAACACGCACUAGAAGGCUGGGUGC [Tesoonge] (puzzle: Same State 1)" measured_result=116

Next, consider the following sequence.
What value of apparent KD of MS2 coat protein has been reported for the following sequence? AGGCGGAUAUCACAGGAUAUGUGCGCGUUCACAUGAGGAUCACCCAUGUAAAGGACGAGCCAAAAGCAGAAGGGUGACCACGCGA [Aedorlebe] (puzzle: Same State 2)
14.8

====

Test system: K4 kissing-loop RNA reporter;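 note: bound reporter read as fluorescence of individual clusters on recovered sequencing chips by microscopy, with normalized cluster intensities fitted with a binding model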
Protocol notes: apparent KD of K4 kissing-loop reporter; higher = weaker reporter binding
Assay conditions: Eterna round: R107; input ligand: tryptophan 2.4 mM
Readout name: apparent KD of K4 kissing-loop reporter
Entry format: amount then unit.

Field: example entries. Status: answers known.
entry_sequence="UGACUGGAUGGAAGGAGCGCUAAACUCCUAGUGAUGUUAGGGACACGAGACAAAGUCUCGAGGCAGGUAGGUCGCCAUCUAGUCU [FiskerMod 7 - Jieux - Same State - Arginine B]" readout_name="apparent KD of K4 kissing-loop reporter" measured_result="212 nM"
entry_sequence="ACACUUUACGUAGGAUAUGCGACGAGUGAUGUUCGUCAGGCGGCCUUAGAUUAAACAAGCCGCCUAGCAGAAGGACGGGCAGUGU [Qumatiri]" readout_name="apparent KD of K4 kissing-loop reporter" measured_result="159 nM"
entry_sequence="UUUUAGGUAUCUGAUACCAGAGAAAAUAUAUGUAGUGAUGUUAUAUACAAAAUAAUUAAGCUCCCUUGGCAGCAGUUUUAAUUUU [AstrosExc-TheB#5]" readout_name="apparent KD of K4 kissing-loop reporter" measured_result="633 nM"

What value of apparent KD of K4 kissing-loop reporter has been reported for the following sequence? CCUAUCUCAUACGAUACCAGUCUACGAUAUUUUAUCGUUGCCAACACCGAGUGAUGUUCGGACCCUUGGCAGCGUAUGGGAUAGG [#03 K4 Theophylline B Exclusion]
136 nM

What value of apparent KD of K4 kissing-loop reporter has been reported for the following sequence? UAUUAAUUGACGGCCGCCACUAUGGUGAUUUAUUUGUUUGAGUGAUGUUUUGAUGUUUGAUUUUGUAGGACCGGGUUAUGUGUUA [pokcmullin]
680 nM

What value of apparent KD of K4 kissing-loop reporter has been reported for the following sequence? UAAUUUAUGUCUUUAAUUUAAUAAUCAGAUACCAGUGAUUUAUGACACCCUUGGCAGCUGUAUUGAGUGAUGUUCUUAUACUUAA [JR_Nu_ExcTheophyA_Sub021]
101 nM

What value of apparent KD of K4 kissing-loop reporter has been reported for the following sequence? GUGAAGGAGAUGCAGUGAUGUUGCAGAGACUAGGAUAUCAGGAAACUGAGAAGGAGUCAAUUCCUUCAUUUAGACUGCAACAUAA [KL-SSFMN-A12]
191 nM

What value of apparent KD of K4 kissing-loop reporter has been reported for the following sequence? GGAUAGGACAGAGGAUAUCCUGAGGCAAGAAACUUGUCUCAUAAAGGAUGAAUCCUAGUGAUGUUAGGAGAAGGCUGUCCUAUCG [FmnBX 15 - #SwitchBubble #StaticStem #Palindromic]
71.3 nM

What value of apparent KD of K4 kissing-loop reporter has been reported for the following sequence? AACCGUGUGGCGGCCGCCACUAGUCUCCAGUGAUGUUGGAGAGAUCACGUAAGUGAUCUCCGACAUAGGACCGGGCCAUAUGGAA [Same State - Tryptophan B (Freestyle 24)]
661 nM
